Tested on: 695427-040-R-J1-PDC complex spheroids, viability percent T/C
Assay Details: Anticancer human tumor 695427-040-R-J1-PDC patient-derived colon adenocarcinoma cell line growth inhibition [GQUAD]
Condition Parameters: second compound 0.1 µM; first compound 0.1 µM; hits give low values
// assign y if viability, T/C falls strictly below 80%, else n (ties count as n)

Compound	Category
Nc1ccn(C2OC(CO)C(O)C2(F)F)c(=O)n1 (stereo not given) + CN(C)c1ccc(Nc2c3ccc(NC(=O)CCN4CCCC4)cc3nc3cc(NC(=O)CCN4CCCC4)ccc23)cc1	n
CC1COCCN1c1cc(C2(O)CC3CCC(C2)O3)c2cnn(-c3ccn[nH]3)c2n1 (stereo not given) + Cc1cnc(CNC(=O)c2c(=O)c3ccc(N4CCCN(C)CC4)nc3n3c2sc2ccccc23)cn1	y
CC1COCCN1c1cc(-c2ccnn2C)c2ccnc(-c3ccn[nH]3)c2n1 (stereo not given) + CN(C)c1ccc(Nc2c3ccc(NC(=O)CCN4CCCC4)cc3nc3cc(NC(=O)CCN4CCCC4)ccc23)cc1	y
C#Cc1c(F)ccc2cc(O)cc(-c3ncc4c(N5CC6CCC(C5)N6)nc(OCC56CCCN5CC(F)C6)nc4c3F)c12 (stereo not given) + CN(C)c1ccc(Nc2c3ccc(NC(=O)CCN4CCCC4)cc3nc3cc(NC(=O)CCN4CCCC4)ccc23)cc1	n
COc1cccc2c1C(=O)c1c(O)c3c(c(O)c1C2=O)CC(O)(C(=O)CO)CC3OC1CC(N)C(O)C(C)O1 (stereo not given) + Cc1cnc(CNC(=O)c2c(=O)c3ccc(N4CCCN(C)CC4)nc3n3c2sc2ccccc23)cn1	y
COc1cccc2c1C(=O)c1c(O)c3c(c(O)c1C2=O)CC(O)(C(=O)CO)CC3OC1CC(N)C(O)C(C)O1 (stereo not given) + Cc1[nH]c2ccc(F)cc2c1-c1nc2c3cccnc3c3ncccc3c2[nH]1	n
O=C(NO)c1cnc(N2CCN(S(=O)(=O)c3ccc4ccccc4c3)CC2)nc1 + Cc1cnc(CNC(=O)c2c(=O)c3ccc(N4CCCN(C)CC4)nc3n3c2sc2ccccc23)cn1	y
COc1ncnc(C2CC2)c1-c1ncc2cnn(Cc3ccc(-c4nc(C(F)(F)F)cn4C(C)C)cc3)c2n1 + Cc1[nH]c2ccc(F)cc2c1-c1nc2c3cccnc3c3ncccc3c2[nH]1	n
CC(=O)O[C@H]1C(=O)[C@@]2(C)[C@H]([C@H](OC(=O)c3ccccc3)[C@]3(O)C[C@H](OC(=O)[C@H](O)[C@@H](NC(=O)c4ccccc4)c4ccccc4)C(C)=C1C3(C)C)[C@]1(OC(C)=O)CO[C@@H]1C[C@@H]2O + Cc1cnc(CNC(=O)c2c(=O)c3ccc(N4CCCN(C)CC4)nc3n3c2sc2ccccc23)cn1	n

====

System: 695427-040-R-J1-PDC complex spheroids, viability percent T/C
Assay Details: Anticancer human tumor 695427-040-R-J1-PDC cell line growth inhibition [GQUAD];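 further: spheroids exposed to compounds for seven days before readout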
Condition Parameters: second compound 0.0316 µM; first compound 0.0316 µM; hits give low values

Molecule	viability, T/C, %
CCc1c2c(nc3ccc(O)cc13)-c1cc3c(c(=O)n1C2)COC(=O)[C@]3(O)CC + CN(C)c1ccc(Nc2c3ccc(NC(=O)CCN4CCCC4)cc3nc3cc(NC(=O)CCN4CCCC4)ccc23)cc1	74.7
Cn1ncnc1[C@H]1c2n[nH]c(=O)c3cc(F)cc(c23)N[C@@H]1c1ccc(F)cc1 + Cc1[nH]c2ccc(F)cc2c1-c1nc2c3cccnc3c3ncccc3c2[nH]1	103
Cn1ncnc1[C@H]1c2n[nH]c(=O)c3cc(F)cc(c23)N[C@@H]1c1ccc(F)cc1 + CN(C)c1ccc(Nc2c3ccc(NC(=O)CCN4CCCC4)cc3nc3cc(NC(=O)CCN4CCCC4)ccc23)cc1	103

====

Test system: 695427-040-R-J1-PDC complex spheroids, viability percent T/C
Assay Details: Anticancer human tumor 695427-040-R-J1-PDC cell line growth inhibition [GQUAD];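 further: spheroids exposed to compounds for seven days before readout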
Condition Parameters: second compound 0.1 µM; first compound 1 µM; hits give low values
Measured viability, T/C accompanies every entry in the list below.

Compound	viability, T/C / %
CC1COCCN1c1cc(C2(S(C)(=N)=O)CC2)nc(-c2ccnc3[nH]ccc23)n1 (stereo unspecified) + Cc1[nH]c2ccc(F)cc2c1-c1nc2c3cccnc3c3ncccc3c2[nH]1	89.3
CC1COCCN1c1cc(C2(S(C)(=N)=O)CC2)nc(-c2ccnc3[nH]ccc23)n1 (stereo unspecified) + Cc1cnc(CNC(=O)c2c(=O)c3ccc(N4CCCN(C)CC4)nc3n3c2sc2ccccc23)cn1	64.4
CC1COCCN1c1cc(C2(O)CC3CCC(C2)O3)c2cnn(-c3ccn[nH]3)c2n1 (stereo unspecified) + Cc1[nH]c2ccc(F)cc2c1-c1nc2c3cccnc3c3ncccc3c2[nH]1	31.4
C=CCn1c(=O)c2cnc(Nc3ccc(N4CCN(C)CC4)cc3)nc2n1-c1cccc(C(C)(C)O)n1 + Cc1cnc(CNC(=O)c2c(=O)c3ccc(N4CCCN(C)CC4)nc3n3c2sc2ccccc23)cn1	49.4
CC1COCCN1c1cc(C2(O)CC3CCC(C2)O3)c2cnn(-c3ccn[nH]3)c2n1 (stereo unspecified) + Cc1cnc(CNC(=O)c2c(=O)c3ccc(N4CCCN(C)CC4)nc3n3c2sc2ccccc23)cn1	34.1
O=c1[nH]cc(F)c(=O)[nH]1 + CN(C)c1ccc(Nc2c3ccc(NC(=O)CCN4CCCC4)cc3nc3cc(NC(=O)CCN4CCCC4)ccc23)cc1	83.8

====

Tested on: 695427-040-R-J1-PDC complex spheroids, viability percent T/C
Assay Details: Anticancer human tumor 695427-040-R-J1-PDC cell line growth inhibition [GQUAD];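 further: spheroids exposed to compounds for seven days before readout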
Condition Parameters: second compound 0.0316 µM; first compound 3.16 µM; hits give low values
Threshold 60%. viability, T/C below it: Y. viability, T/C at it or above: N.

Compound	Category
O=C(c1cc(Cc2n[nH]c(=O)c3ccccc23)ccc1F)N1CCN(C(=O)C2CC2)CC1 + Cc1[nH]c2ccc(F)cc2c1-c1nc2c3cccnc3c3ncccc3c2[nH]1	N
CC1COCCN1c1cc(-c2ccnn2C)c2ccnc(-c3ccn[nH]3)c2n1 (stereo unspecified) + Cc1[nH]c2ccc(F)cc2c1-c1nc2c3cccnc3c3ncccc3c2[nH]1	Y
O=c1[nH]cc(F)c(=O)[nH]1 + CN(C)c1ccc(Nc2c3ccc(NC(=O)CCN4CCCC4)cc3nc3cc(NC(=O)CCN4CCCC4)ccc23)cc1	N
COc1cc(C2c3cc4c(cc3C(OC3OC5COC(C)OC5C(O)C3O)C3COC(=O)C23)OCO4)cc(OC)c1O (stereo unspecified) + CN(C)c1ccc(Nc2c3ccc(NC(=O)CCN4CCCC4)cc3nc3cc(NC(=O)CCN4CCCC4)ccc23)cc1	N
O=c1[nH]cc(F)c(=O)[nH]1 + Cc1[nH]c2ccc(F)cc2c1-c1nc2c3cccnc3c3ncccc3c2[nH]1	N
COc1cccc2c1C(=O)c1c(O)c3c(c(O)c1C2=O)CC(O)(C(=O)CO)CC3OC1CC(N)C(O)C(C)O1 (stereo unspecified) + Cc1cnc(CNC(=O)c2c(=O)c3ccc(N4CCCN(C)CC4)nc3n3c2sc2ccccc23)cn1	Y
CC(C)n1c(=O)n(C)c2cnc3cc(F)c(-c4ccc(OCCCN5CCCCC5)nc4)cc3c21 + CN(C)c1ccc(Nc2c3ccc(NC(=O)CCN4CCCC4)cc3nc3cc(NC(=O)CCN4CCCC4)ccc23)cc1	N
CC(C)(O)C1CCC(Nc2ccc3ncc(-c4cccc(C(F)(F)F)c4)n3n2)CC1 (stereo unspecified) + Cc1[nH]c2ccc(F)cc2c1-c1nc2c3cccnc3c3ncccc3c2[nH]1	N
C#Cc1c(F)ccc2cc(O)cc(-c3ncc4c(N5CC6CCC(C5)N6)nc(OCC56CCCN5CC(F)C6)nc4c3F)c12 (stereo unspecified) + Cc1[nH]c2ccc(F)cc2c1-c1nc2c3cccnc3c3ncccc3c2[nH]1	Y
C#Cc1c(F)ccc2cc(O)cc(-c3ncc4c(N5CC6CCC(C5)N6)nc(OCC56CCCN5CC(F)C6)nc4c3F)c12 (stereo unspecified) + CN(C)c1ccc(Nc2c3ccc(NC(=O)CCN4CCCC4)cc3nc3cc(NC(=O)CCN4CCCC4)ccc23)cc1	N
CC1COCCN1c1cc(-c2ccnn2C)c2ccnc(-c3ccn[nH]3)c2n1 (stereo unspecified) + CN(C)c1ccc(Nc2c3ccc(NC(=O)CCN4CCCC4)cc3nc3cc(NC(=O)CCN4CCCC4)ccc23)cc1	Y
CC1COCCN1c1cc(C2(O)CC3CCC(C2)O3)c2cnn(-c3ccn[nH]3)c2n1 (stereo unspecified) + CN(C)c1ccc(Nc2c3ccc(NC(=O)CCN4CCCC4)cc3nc3cc(NC(=O)CCN4CCCC4)ccc23)cc1	Y
C=CCn1c(=O)c2cnc(Nc3ccc(N4CCN(C)CC4)cc3)nc2n1-c1cccc(C(C)(C)O)n1 + Cc1[nH]c2ccc(F)cc2c1-c1nc2c3cccnc3c3ncccc3c2[nH]1	N
O=C(NO)c1cnc(N2CCN(S(=O)(=O)c3ccc4ccccc4c3)CC2)nc1 + CN(C)c1ccc(Nc2c3ccc(NC(=O)CCN4CCCC4)cc3nc3cc(NC(=O)CCN4CCCC4)ccc23)cc1	Y
O=C(c1cc(Cc2n[nH]c(=O)c3ccccc23)ccc1F)N1CCN(C(=O)C2CC2)CC1 + CN(C)c1ccc(Nc2c3ccc(NC(=O)CCN4CCCC4)cc3nc3cc(NC(=O)CCN4CCCC4)ccc23)cc1	N
O=C(c1cc(Cc2n[nH]c(=O)c3ccccc23)ccc1F)N1CCN(C(=O)C2CC2)CC1 + Cc1cnc(CNC(=O)c2c(=O)c3ccc(N4CCCN(C)CC4)nc3n3c2sc2ccccc23)cn1	N
COc1cccc2c1C(=O)c1c(O)c3c(c(O)c1C2=O)CC(O)(C(=O)CO)CC3OC1CC(N)C(O)C(C)O1 (stereo unspecified) + CN(C)c1ccc(Nc2c3ccc(NC(=O)CCN4CCCC4)cc3nc3cc(NC(=O)CCN4CCCC4)ccc23)cc1	N
COc1cc(C2c3cc4c(cc3C(OC3OC5COC(C)OC5C(O)C3O)C3COC(=O)C23)OCO4)cc(OC)c1O (stereo unspecified) + Cc1cnc(CNC(=O)c2c(=O)c3ccc(N4CCCN(C)CC4)nc3n3c2sc2ccccc23)cn1	N
COc1ccc([C@@H](O)c2cc(-c3ncnc4cc(N5CCOCC5)ccc34)c(F)cc2Cl)nn1 + CN(C)c1ccc(Nc2c3ccc(NC(=O)CCN4CCCC4)cc3nc3cc(NC(=O)CCN4CCCC4)ccc23)cc1	N

Data origin: PubChem BioAssay AID2060492
